meta.source: paper PMC4360378

- target-system: yeast Rtt109–Vps75 (Saccharomyces cerevisiae)
- Sequence (Q07794 whole entry): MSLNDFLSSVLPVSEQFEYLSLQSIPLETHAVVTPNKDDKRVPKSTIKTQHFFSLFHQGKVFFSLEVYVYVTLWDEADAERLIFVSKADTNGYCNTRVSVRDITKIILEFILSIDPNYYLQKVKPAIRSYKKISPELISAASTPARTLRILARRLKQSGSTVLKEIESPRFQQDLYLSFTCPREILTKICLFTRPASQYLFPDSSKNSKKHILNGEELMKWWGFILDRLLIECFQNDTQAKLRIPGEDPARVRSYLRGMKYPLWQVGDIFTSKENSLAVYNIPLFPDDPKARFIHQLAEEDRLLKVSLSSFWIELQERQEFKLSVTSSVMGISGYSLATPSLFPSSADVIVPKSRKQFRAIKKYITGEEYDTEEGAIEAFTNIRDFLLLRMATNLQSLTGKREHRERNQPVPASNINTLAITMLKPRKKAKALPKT
- Sequence (P53853 whole entry partner): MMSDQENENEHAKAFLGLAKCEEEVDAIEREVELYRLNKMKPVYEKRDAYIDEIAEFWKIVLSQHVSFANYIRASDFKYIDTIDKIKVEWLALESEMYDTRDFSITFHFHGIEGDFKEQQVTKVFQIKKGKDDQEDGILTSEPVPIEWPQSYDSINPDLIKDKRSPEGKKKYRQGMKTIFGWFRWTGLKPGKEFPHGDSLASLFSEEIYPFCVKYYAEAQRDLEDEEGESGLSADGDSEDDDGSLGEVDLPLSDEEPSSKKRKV
- procedure-details: [3H]-acetyl-CoA HAT assay, Rtt109
- Type: biochemical
- experimental-context: 1 mM DTT; results similar versus Rtt109-Vps75, p300, and Gcn5
readout-label: (+) DTT IC50 effect

O=[N+]([O-])c1c(Sc2nnnn2-c2ccccc2)cc(Cl)c2nonc12 [2e]    increase
CCN(CC)c1ccc2c(C)c(-c3ccc(N4C(=O)C=CC4=O)cc3)c(=O)oc2c1 [CPM, reference compound]    increase
OC(Cn1cncn1)(Cn1cncn1)c1ccc(F)cc1F [fluconazole, reference compound]    none
O=C(O)CSc1cc(NS(=O)(=O)c2ccc(Br)cc2)c2ccccc2c1O [6y]    increase
